// values below are log10 MIC; system is Staphylococcus aureus
For clarity, the numbers are log10 values of MIC expressed in µM.

Study these solved cases before continuing.
Request: log10 MIC, test system Staphylococcus aureus, entry NC(=O)[C@H](Cc1ccccc1)NC(=O)[C@H](Cc1ccccc1)NC(=O)[C@H](Cc1ccccc1)NC(=O)[C@@H](N)Cc1ccccc1
2.77

Request: log10 MIC, test system Staphylococcus aureus, entry CC[C@H](C)[C@H](NC(=O)[C@H](CC(C)C)NC(=O)[C@H](CCCCN)NC(=O)CNC(=O)[C@H](CC(C)C)NC(=O)[C@@H](NC(=O)[C@H](CCCCN)NC(=O)[C@H](CCCCN)NC(=O)[C@H](Cc1c[nH]c2ccccc12)NC(=O)[C@H](CCCCN)NC(=O)CN)[C@@H](C)CC)C(=O)N[C@@H](CCCN=C(N)N)C(N)=O
1.78

Request: log10 MIC, test system Staphylococcus aureus, entry CC[C@H](C)[C@H](NC(=O)CN)C(=O)N[C@@H](CC(C)C)C(=O)N[C@@H](CCCCN)C(=O)N[C@@H](CO)C(=O)N[C@@H](CC(C)C)C(=O)N[C@@H](CC(C)C)C(=O)N[C@@H](CCCCN)C(=O)N[C@@H](CCCCN)C(=O)N[C@@H](CC(C)C)C(=O)N[C@@H](CCCCN)C(=O)N[C@@H](CCCCN)C(=O)N[C@H](C(=O)N[C@H](C(=O)N[C@@H](C)C(=O)N[C@@H](CCCCN)C(N)=O)[C@@H](C)CC)[C@@H](C)CC
1.00

Request: log10 MIC, test system Staphylococcus aureus, entry CC(C)C[C@H](NC(=O)[C@H](CC(C)C)NC(=O)[C@H](CCCCN)NC(=O)[C@H](CCCCN)NC(=O)[C@H](C)NC(=O)[C@H](CC(C)C)NC(=O)[C@H](C)NC(=O)[C@H](CCCCN)NC(=O)[C@H](CC(C)C)NC(=O)[C@H](Cc1c[nH]c2ccccc12)NC(=O)[C@H](Cc1c[nH]c2ccccc12)NC(=O)[C@H](CCCN=C(N)N)NC(=O)[C@H](Cc1c[nH]c2ccccc12)NC(=O)[C@H](CCCCN)NC(=O)[C@@H](N)CCCCN)C(N)=O
-0.60

Next:
Request: log10 MIC, test system Staphylococcus aureus, entry CC(C)C[C@H](NC(=O)[C@H](C)NC(=O)[C@H](CCCCN)NC(=O)[C@H](Cc1c[nH]c2ccccc12)NC(=O)[C@H](CC(C)C)NC(=O)[C@H](CCCCN)NC(=O)[C@H](C)NC(=O)[C@H](CC(C)C)NC(=O)[C@H](C)NC(=O)[C@H](CCCCN)NC(=O)[C@H](C)NC(=O)[C@H](CC(C)C)NC(=O)[C@H](C)NC(=O)[C@@H](N)CCCCN)C(=O)N[C@@H](C)C(=O)N[C@@H](CCCCN)C(=O)N[C@@H](C)C(=O)N[C@@H](C)C(N)=O
0.18

* * *

# Test system: Pseudomonas aeruginosa H103
# Experiment summary: ≥ marks a high value that may be exact or a test limit, other limits are often not marked, values filed in µg/mL are converted to µM
Measurement type: MIC (µM)
Give just the number in µM; leave the unit off.

Request: MIC, test system Pseudomonas aeruginosa H103, entry CC[C@H](C)[C@H](NC(=O)[C@H](CCCCN)NC(=O)[C@H](CCCN=C(N)N)NC(=O)[C@H](Cc1c[nH]c2ccccc12)NC(=O)[C@H](Cc1c[nH]c2ccccc12)NC(=O)[C@H](Cc1c[nH]c2ccccc12)NC(=O)[C@H](CCCCN)NC(=O)[C@H](Cc1c[nH]c2ccccc12)NC(=O)[C@@H](N)CCCCN)C(=O)O
4.6
